Assay: CCTE_Harrill_HTTr_Apoptosis_MCF7: CCTE's 6-hour Apoptosis Assessment for the High-Throughput Transcriptomics (HTTr) Platform, in MCF-7 cells cultured in DMEM + 10% fetal bovine serum, Harrill Lab (AID 2284011)
The source made the active and inactive calls. The calls were made as follows: active = hit-call score of the fitted dose curve at least 0.9, where 1 is the maximum; inactive = score below 0.9.
attributeMeasured: AC50

INSERT INTO results (compound, attributemeasured, observedvalue) VALUES
  ('OCCN(CCO)CCO', 'AC50', 'inactive'),
  ('Cc1cc(SCc2sc(-c3ccc(C(F)(F)F)c(F)c3)nc2C)ccc1OCC(=O)O', 'AC50', 'inactive'),
  ('Cc1cccc(C)c1NC(=O)CN1CCCC1=O', 'AC50', 'inactive'),
  ('CC(O)(CS(=O)(=O)c1ccc(F)cc1)C(=O)Nc1ccc(C#N)c(C(F)(F)F)c1 (centres undefined)', 'AC50', 'inactive'),
  ('C1CCC(C2CCCCC2)CC1', 'AC50', 'inactive'),
  ('CC(C)N(C(=O)CCl)c1ccccc1', 'AC50', 'inactive'),
  ('Oc1c(Br)cc(Br)cc1Br', 'AC50', 'inactive'),
  ('Brc1ccc(Br)cc1', 'AC50', 'inactive'),
  ('CCOC(=O)CCN(SN(C)C(=O)Oc1cccc2c1OC(C)(C)C2)C(C)C', 'AC50', 'inactive'),
  ('Nc1ccc(N)cc1', 'AC50', 'inactive'),
  ('CCCSP(=S)(OCC)Oc1ccc(Cl)cc1Cl (centres undefined)', 'AC50', 'inactive'),
  ('O=NN1CCOCC1', 'AC50', 'inactive'),
  ('COCCl', 'AC50', 'inactive'),
  ('CC1(C)[C@H](C(=O)O[C@H](C#N)c2cccc(Oc3ccccc3)c2)[C@@H]1/C=C(\Cl)C(F)(F)F', 'AC50', 'inactive'),
  ('CN(C)C(=S)S', 'AC50', 'inactive'),
  ('C[As+](C)(C)CC(=O)[O-]', 'AC50', 'inactive'),
  ('Clc1cnc(Oc2ccc(Oc3ncc(Cl)cc3Cl)cc2)c(Cl)c1', 'AC50', 'inactive'),
  ('O=C(Cc1ccccc1)OCCc1ccccc1', 'AC50', 'inactive'),
  ('CCOP(=S)(OCC)Oc1ccc(Cl)cc1Cl', 'AC50', 'inactive'),
  ('Cc1cc(Cl)ccc1N', 'AC50', 'inactive'),
  ('COC(=O)c1cc(Oc2ccc(Cl)cc2Cl)ccc1[N+](=O)[O-]', 'AC50', 'inactive'),
  ('CCCCOC(=O)COC(=O)c1ccccc1C(=O)OCCCC', 'AC50', 'inactive'),
  ('COCC(=O)N(c1c(C)cccc1C)[C@H](C)C(=O)OC', 'AC50', 'inactive'),
  ('N#Cc1cccnc1', 'AC50', 'inactive'),
  ('Oc1cc(Cl)c(Cl)cc1Cl', 'AC50', 'inactive'),
  ('CC(C)(C)c1ccccc1O', 'AC50', 'inactive'),
  ('Nc1ncn[nH]1', 'AC50', 'inactive'),
  ('O=S1(=O)OC(c2cc(Br)c(O)c(Br)c2)(c2cc(Br)c(O)c(Br)c2)c2ccccc21', 'AC50', 'inactive'),
  ('O=C1C[C@@H]2OCC=C3CN4CC[C@]56c7ccccc7N1[C@H]5[C@H]2[C@H]3C[C@H]46', 'AC50', 'inactive'),
  ('OCCCCO', 'AC50', 'inactive'),
  ('C[CH2][Hg][S]c1ccccc1C(=O)O', 'AC50', 'inactive'),
  ('Nc1nc(N)nc(Cl)n1', 'AC50', 'inactive'),
  ('O=c1[nH]c2ccccc2n1C1CCN(CCCC(c2ccc(F)cc2)c2ccc(F)cc2)CC1', 'AC50', '60.9 µM (active)'),
  ('CN(N=O)C(N)=O', 'AC50', 'inactive'),
  ('O=C(O)C1(c2ccc3c(c2)OC[C@H](Cc2ccc(-c4ccccc4)cc2)[C@H]3O)CCCC1', 'AC50', 'inactive'),
  ('CCOc1cc(C=O)ccc1O', 'AC50', 'inactive'),
  ('O=C(O)COc1cc(Cl)c(Cl)cc1Cl', 'AC50', 'inactive'),
  ('C=CCc1ccccc1O', 'AC50', 'inactive'),
  ('O=NN1CCCCCC1', 'AC50', 'inactive'),
  ('O=C1C=CC(=O)c2ccccc21', 'AC50', '60.4 µM (active)'),
  ('O=[N+]([O-])c1cccc2ccccc12', 'AC50', 'inactive'),
  ('O=C(N[C@H]1CN2CCC1CC2)c1ccc2c(c1)OCCO2', 'AC50', 'inactive'),
  ('CCOP(=S)(OCC)O/N=C(\C#N)c1ccccc1', 'AC50', 'inactive'),
  ('CC(C)[C@H](C(=O)OC(C#N)c1cccc(Oc2ccccc2)c1)c1ccc(OC(F)F)cc1 (some centres undefined)', 'AC50', 'inactive'),
  ('Oc1ccc(Cc2ccc(O)cc2)cc1', 'AC50', 'inactive'),
  ('COc1nn(C(=O)NS(=O)(=O)c2ccccc2OC(F)(F)F)c(=O)n1C', 'AC50', 'inactive'),
  ('C1CN2CCN1CC2', 'AC50', 'inactive'),
  ('CCOC(=O)c1ccccc1S(=O)(=O)NC(=O)Nc1nc(Cl)cc(OC)n1', 'AC50', 'inactive'),
  ('OC(Cc1ccccc1Cl)(Cn1[nH]cnc1=S)C1(Cl)CC1 (centres undefined)', 'AC50', 'inactive'),
  ('C#C[C@]1(O)CC[C@H]2[C@@H]3CCC4=CC(=O)CC[C@]4(C)[C@H]3CC[C@@]21C', 'AC50', 'inactive'),
  ('CCCCCCCCCCCCCCC(Br)C(=O)O (centres undefined)', 'AC50', 'inactive'),
  ('CCCSP(=S)(OCC)Oc1ccc(SC)cc1 (centres undefined)', 'AC50', 'inactive'),
  ('CS(=O)(=O)c1ccc(C(=O)C2C(=O)CCCC2=O)c(Cl)c1COCC(F)(F)F', 'AC50', 'inactive'),
  ('Brc1c(Br)c(Br)c(Oc2c(Br)c(Br)c(Br)c(Br)c2Br)c(Br)c1Br', 'AC50', 'inactive');
